Values compiled from PubChem BioAssay.

Recorded measurements of cell count, one per entry
methodSummary: inhibitors of TNFa-induced NFkB p65 translocation, primary screen, imaging, HUVEC, MLSMR starter and 10KST1 sets (AID 438);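 further: compound added about 3h40 before a 20 min TNFalpha stimulation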
measurementParameters: HUVEC TNFa-induced p65 nuclear translocation; measured here: nuclei count (cytotoxicity indicator), at 2.08 µM

Below, 6 compounds whose answers are already recorded.
>>> valuemeasured("CCN(CC)S(=O)(=O)c1ccc2c(c1)nc(SCn1nnc3ccccc3c1=O)n2CC")
765
>>> valuemeasured("O=C(Nc1ccc2oc(Cc3ccc(Cl)cc3)nc2c1)c1cccnc1")
396
>>> valuemeasured("Cc1ccc2c(c1)-c1c(cnn1CC(=O)Nc1ccccc1N1CCN(C)CC1)CO2")
521
>>> valuemeasured("CN(C)c1ccc(C=Nc2ccc(N(C)C)cc2)cc1")
345
>>> valuemeasured("CC1CCc2c(sc3c2C2=NS(=O)(=O)CCN2C=N3)C1 (stereo not drawn)")
188
>>> valuemeasured("Cc1ccc(-n2c(Cc3cccn3C)nnc2SCC(=O)NCc2ccc3c(c2)OCO3)cc1")
567

State the recorded cell count for this entry: `COc1cc(OC)cc(C(=O)NCc2n[nH]c(=S)n2-c2ccccc2OC)c1`
385

State the recorded cell count for this entry: `Oc1ccc(Nc2nc(-c3ccc(O)cc3)cs2)cc1`
277
